# ASSAY SYSTEM: T1, UNK ZnF1-3 (human, UniProt Q9C0B0 31-174)
# T1 sequence: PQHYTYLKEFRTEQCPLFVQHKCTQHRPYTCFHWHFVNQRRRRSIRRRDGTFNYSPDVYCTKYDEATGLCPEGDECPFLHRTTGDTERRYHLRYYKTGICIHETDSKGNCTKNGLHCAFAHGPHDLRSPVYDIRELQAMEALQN
# ASSAY COMMENT: nsRBNS (natural sequence RNA bind-n-seq); RBNS binding buffer (assumed for nsRBNS): 25 mM Tris pH 7.5, 150 mM KCl, 3 mM MgCl2, 0.01% Triton X-100, 500 ug/ml BSA, 20 U/ml SUPERase-In, 4 C; UNK is unkempt and MSI1 is Musashi-1; names of the RNAs are library labels; protein concentration not given here; high values mean tight binding
Over roughly 24,000 sequences, “enrichment r” has its median near 0.99; the highest 2% begin near 3.7. Shown is part of a subset that was picked to be rich in the highest values.
MEASURED PARAMETER: binding signal

Here is how some binders turned out for binding signal.
{"columns": ["BINDER", "binding signal"],
 "data": [
  ["chr11:77336104:77336105:-_ENSG00000074201_ENST00000525064|hu_mus|hu_hu_hu_mus_False|98_108 (ssRNA) RNA: GGGAGUUCUACAGUCCGACGAUCCUCGCACAUUGCAGUGAACAUUGCCUCCAAUGCUGACUUAUCACUGGGCACAAAUCGAAAUUCAGAAAUGGGUUCAACAUCAUCAUUGUCUUCCUCAUCUUCAUCAGAGAGAGGUUCUUUCAACAGAGGAUUGAGCAUCA", "0.914 enrichment R"],
  ["chr17:56552419:56552420:-_ENSMUSG00000013236_ENSMUST00000086828|mus_mus|mus_mus_mus_hu_False|78_78 (ssRNA) RNA: GGGAGUUCUACAGUCCGACGAUCAAAAAAUACACUAUUUAAAAAAAAUGAAAUGUCAGAAAAAGAAGUUACACUGAGAGUUUUAAAAGAAAGCUGGAUUCUGGUCCCAGCCCAGUGUCCCCAGGCUGCAGAGCGGGGAGGAGCCAACAGAGGAUUGAGCAUCA", "4.51 enrichment R"],
  ["chr19:8913615:8913616:-_ENSMUSG00000071658_ENSMUST00000096259|mus_hu|mus_mus_mus_hu_False|1_98 (ssRNA) RNA: GGGAGUUCUACAGUCCGACGAUCAGGGUACCAAAACACCCUGCCUCAAAUGGGUGCCCCACCCAGUAGGGAGUUGCAGCUGAAAGUAUCUGAUGCAGAAGCAGUGACUAUACGAAAGGAGGCCCCUGGGGAGGGCCCGAGAUCCAACAGAGGAUUGAGCAUCA", "1.7 enrichment R"]
]}

What value of binding signal has been reported for the following binder? chr17:56552419:56552420:-_ENSMUSG00000013236_ENSMUST00000086828|mus_mus|mus_mus_mus_hu_False|48_78 (ssRNA) RNA: GGGAGUUCUACAGUCCGACGAUCAAAAAAUACACUAUUUAAAAAAAAUGAAAUGUCAGAAAAAGAAGUUACACUGAGAGUUUUAAAAAAAAAUAAGAUUCUGGUCCCAGCCCAGUGUCCCCAGGCUGCAGAGCGGGGAGGAGCCAACAGAGGAUUGAGCAUCA
9.32 enrichment R

Could you do the same for 93812015_93812135_631_5pUTR_ENSG00000117505_ENST00000370272|human|control|control (ssRNA) RNA: GGGAGUUCUACAGUCCGACGAUCGAUUUCUCAAAAAGUCGCCCUCGGAGAGUGAUCCCGGGGGGUGCUUUGCGAAGAGGGUGCAGAAAAUGAACGGAGGAGCAGCUGGCUUGAGGGCUGGGAACACUCGCGUGUGUGAGAGAUCAACAGAGGAUUGAGCAUCA , please?
1.73 enrichment R

# repeat for chr2:27806210:27806211:+_ENSMUSG00000026837_ENSMUST00000028280|mus_mus|FALSE|FALSE (ssRNA) RNA: GGGAGUUCUACAGUCCGACGAUCUGUGGUUUCUCUGGCAGCUUCCACUGGCUUCUGAGUAGGGGCAGGCUCCUUUCCCGGGUCUUCAGGGUCUUCAUAAUAUGGAUACUCAUAGUAAUAGGUCUCACCCUCUCCUUCUGGGUACAACAGAGGAUUGAGCAUCA
0.892 enrichment R

What do we get for 5953805_5956048_782_CDS_ENSMUSG00000024833_ENSMUST00000025752|mouse|control|control (ssRNA) RNA: GGGAGUUCUACAGUCCGACGAUCCAAGCCCUGUGCGGAGCCAAAGGUGGUCACCACUUCUCCCCGGUUGGUUCUGGAGGUGUAUUUCUGGGAGGGGGUAGCACUCGGGGAGAAACUUGACGGUGAGAGAAGCUGACGUGGGCUCAACAGAGGAUUGAGCAUCA ?
1.38 enrichment R

Item: chr2:151796264:151796265:-_ENSMUSG00000027459_ENSMUST00000062047|mus_mus|motif|central (ssRNA) RNA: GGGAGUUCUACAGUCCGACGAUCUGUUCGGCUGGCCUCAGAUGGGGACACAGGACUAUCACACAAGUUGAUGAGGCUGCGGAGGAUGUCGAGGUCCAGUUGGGGCCGGCGGCCAGAACAGGGCAGGACUCGGCGACUGGGUGUCAACAGAGGAUUGAGCAUCA
0.777 enrichment R
